B1: SEC22B (parent)
chain: AKQLFRKLNEQSPTRCTLEAGAMT

Variants of: B1
Experiment: protein stability index of a GFP-peptide fusion (GPS, HEK-293T) (PSI 1-6); higher = more stable;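 further: lentivirally expressed fusions sorted by FACS into six bins by GFP to DsRed ratio, PSI derived from sequencing read proportions per bin multiplied by bin number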
Conditions: c terminus: a fixed tail appended

Variant Spec: T17H
protein stability index: 2

Variant Spec: F5Y
protein stability index: 2.28

Variant Spec: Q11G
protein stability index: 2.14

Variant Spec: N9W
protein stability index: 3.44

Variant Spec: L4I
protein stability index: 1.99

Variant Spec: A1H
protein stability index: 2.23

Variant Spec: S12P
protein stability index: 1.68

Variant Spec: R6V
protein stability index: 2.31

Variant Spec: T17I
protein stability index: 1.86

Variant Spec: Q3C
protein stability index: 2.39

Variant Spec: R6D
protein stability index: 2.67

Variant Spec: K2W
protein stability index: 2.92

Variant Spec: K2D
protein stability index: 2.42

Variant Spec: E19S
protein stability index: 2.94

Variant Spec: Q11P
protein stability index: 2.09

Variant Spec: L4Y
protein stability index: 2.32

Variant Spec: T24G
protein stability index: 2.49

Variant Spec: Q11E
protein stability index: 2.85

Variant Spec: C16M
protein stability index: 3.08

Variant Spec: L8H
protein stability index: 2.64

Variant Spec: A1F
protein stability index: 2.18

Variant Spec: Q3P
protein stability index: 2.5
